Numbers sourced from patent US20240376076A1.

Biological target: USP7, Active human recombinant protein (Homo sapiens)
Construct: purchased CP Lot; 20200225001
Assay: USP7 assay (Ubiquitin-Rhodamine 110 enzymatic assay)
Type: biochemical
Details: read-out: IC50
pIC50: −log10 of the molar value.
# pIC50 per entry

| compound | pIC50 |
| --- | --- |
| CN1CCN(CCC(=O)Nc2ccc3c(=O)n(CC4(O)CCN(C(=O)[C@@H](CCCNC(=O)c5ccc6c(Cl)cc(-c7cnn(CC(F)(F)F)c7)nc6c5)Cc5ccccc5)CC4)cnc3c2)CC1 [Compound 20] | 7.00 to 7.70 |
| CN(C)CCOc1ccc2c(=O)n(CC3(O)CCN(C(=O)[C@H](CCCNC(=O)c4ccc5c(Cl)cc(C6CC6)nc5c4)Cc4ccccc4)CC3)cnc2c1 [Compound 117] | 7.00 to 7.70 |
| Cn1c(=O)n(CC2(O)CCN(C(=O)C(CCCNC(=O)c3ccc4c(Cl)ccnc4c3)Cc3ccccc3)CC2)c2cnccc21 (centres unmarked) [Compound 37] | < 6.00 |
| CN(C)CCCOc1ccc2c(=O)n(CC3(O)CCN(C(=O)[C@H](CCCNC(=O)c4ccc5c(Cl)c6c(nc5c4)CC(C)(C)C6)Cc4ccccc4)CC3)cnc2c1 [Compound 121] | > 7.70 |
| O=C(CCN1CCOCC1)Nc1ccc2c(=O)n(CC3(O)CCN(C(=O)C(CCCNC(=O)c4ccc5c(Cl)ccnc5c4)Cc4ccccc4)CC3)cnc2c1 (centres unmarked) [Compound 60] | 7.00 to 7.70 |
| CN1CCN(CCC(=O)Nc2ccc3c(=O)n(CC4(O)CCN(C(=O)C(CCCNC(=O)c5ccc6c(Cl)cc(C7(F)CC7)nc6c5)Cc5ccccc5)CC4)cnc3c2)CC1 (centres unmarked) [Compound 21] | < 6.00 |

INPUT: Write down pIC50 measured for item O=C(NCCN1CCC(C(=O)N2CCC(O)(Cn3cnc4cc(OCCN5CCNCC5)ccc4c3=O)CC2)C(c2ccccc2)C1)c1ccc2c(F)ccnc2c1 (centres unmarked) [Compound 109]
OUTPUT: > 7.70

INPUT: Write down pIC50 measured for item O=C(NCCN1CC[C@@H](C(=O)N2CCC(O)(Cn3cnc4cc(-c5nc(CN6CCNCC6)co5)ccc4c3=O)CC2)[C@H](c2ccccc2)C1)c1ccc2c(Cl)ccnc2c1 [Compound 144]
OUTPUT: 7.00 to 7.70

INPUT: Write down pIC50 measured for item CN(C)CC(=O)Nc1ccc2c(=O)n(CC3(O)CCN(C(=O)[C@H]4CC[C@H](NC(=O)c5ccc6c(Cl)ccnc6c5)CC4)CC3)cnc2c1 [Compound 35]
OUTPUT: < 6.00

INPUT: Write down pIC50 measured for item CC(C)c1cnc2cc(C(=O)NCCC[C@H](Cc3ccccc3)C(=O)N3CCC(O)(Cn4cnc5cc(NC(=O)CCN(C)C)ccc5c4=O)CC3)ccc2c1Cl [Compound 119]
OUTPUT: > 7.70

INPUT: Write down pIC50 measured for item CN(C)CCC(=O)Nc1ccc2c(=O)n(CC3(O)CCN(C(=O)C(CCCNC(=O)c4ccc5c(Cl)ccnc5c4)Cc4ccccc4)CC3)cnc2c1 (centres unmarked) [Compound 62]
OUTPUT: 7.00 to 7.70

* * *

Biological target: USP7, Active human recombinant protein (Homo sapiens, UniProt Q93009)
Construct: purchased CP Lot; 20200225001
Sequence (Q93009 whole entry): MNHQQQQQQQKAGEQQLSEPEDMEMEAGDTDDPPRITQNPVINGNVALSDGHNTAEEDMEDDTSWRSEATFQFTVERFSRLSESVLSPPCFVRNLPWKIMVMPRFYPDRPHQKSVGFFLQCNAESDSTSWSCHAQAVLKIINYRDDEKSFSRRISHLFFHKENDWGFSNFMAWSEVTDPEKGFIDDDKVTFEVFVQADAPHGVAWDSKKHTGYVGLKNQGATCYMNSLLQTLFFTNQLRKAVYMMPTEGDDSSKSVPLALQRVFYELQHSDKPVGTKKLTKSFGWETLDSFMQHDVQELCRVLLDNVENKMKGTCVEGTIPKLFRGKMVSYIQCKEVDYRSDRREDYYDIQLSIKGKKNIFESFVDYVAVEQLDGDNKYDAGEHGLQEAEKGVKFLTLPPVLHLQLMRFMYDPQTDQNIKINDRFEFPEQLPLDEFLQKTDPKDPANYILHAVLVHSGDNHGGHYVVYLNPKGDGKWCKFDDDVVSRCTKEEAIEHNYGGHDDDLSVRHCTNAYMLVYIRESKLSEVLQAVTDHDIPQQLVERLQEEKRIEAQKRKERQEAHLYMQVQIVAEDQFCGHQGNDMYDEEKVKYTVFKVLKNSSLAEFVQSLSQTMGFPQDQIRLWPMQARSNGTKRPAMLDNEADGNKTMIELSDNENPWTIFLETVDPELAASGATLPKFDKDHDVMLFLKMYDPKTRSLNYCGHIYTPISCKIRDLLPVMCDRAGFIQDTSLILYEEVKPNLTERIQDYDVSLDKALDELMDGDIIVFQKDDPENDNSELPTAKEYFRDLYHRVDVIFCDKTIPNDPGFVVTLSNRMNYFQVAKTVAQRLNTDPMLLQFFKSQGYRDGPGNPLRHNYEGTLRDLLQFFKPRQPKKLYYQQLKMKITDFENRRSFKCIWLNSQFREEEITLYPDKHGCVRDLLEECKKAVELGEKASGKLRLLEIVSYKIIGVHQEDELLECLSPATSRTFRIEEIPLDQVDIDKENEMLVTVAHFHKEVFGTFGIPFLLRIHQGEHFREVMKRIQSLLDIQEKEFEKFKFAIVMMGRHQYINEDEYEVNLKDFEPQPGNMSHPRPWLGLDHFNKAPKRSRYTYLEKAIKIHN
Experiment: USP7 assay (Ubiquitin-Rhodamine 110 enzymatic assay)
Format: biochemical
Details: read-out: IC50
Procedure: Enzymatic Assays with Exemplary USP7 Irreversible Inhibitors ND refers to not disclosed. […] Added appropriate amount of USP7 in 1× assay Buffer to prepare 2× enzyme solution (USP7 final concentration: 0.05 nM). […] Read the plate kinetically on SpectraMax Paradigm for 20 min with excitation at 485 nm and emission at 535 nm. Copied raw data (slope) from Reader to obtain inhibition values in Excel using equation (1): […]
observed-property: IC50

| molecule | experimental-system | observed-property | reported |
| --- | --- | --- | --- |
| Nc1cccc(-n2ncc3c(=O)n(CC4(O)CCN(C(=O)C(CCCNC(=O)c5ccc6c(Cl)ccnc6c5)Cc5ccccc5)CC4)cnc32)c1 (stereo not drawn) | USP7, Active human recombinant protein (Homo sapiens, UniProt Q93009) | IC50 | 20 to 100 nM |
| CN1CCN(CCC(=O)Nc2ccc3c(=O)n(CC4(O)CCN(C(=O)[C@H](CCCNC(=O)c5ccc6c(Cl)cc(-c7cnn(CC(F)(F)F)c7)nc6c5)Cc5ccccc5)CC4)cnc3c2)CC1 | USP7, Active human recombinant protein (Homo sapiens, UniProt Q93009) | IC50 | > 1000 nM |

Next molecule, please.
INPUT: Write down IC50 measured for item CN(C)CCC(=O)Nc1ccc2c(=O)n(CC3(O)CCN(C(=O)C4CN(CCNC(=O)c5ccc6c(Cl)ccnc6c5)CC4Cc4ccccc4)CC3)cnc2c1 (stereo not drawn)
OUTPUT: 20 to 100 nM

* * *

Molecular target: USP7, Active human recombinant protein (Homo sapiens)
Construct: purchased CP Lot; 20200225001
Experiment: USP7 assay (Ubiquitin-Rhodamine 110 enzymatic assay)
Type: biochemical
Settings: 16 h, read-out: IC50, μM (16 h)
observed-property: IC50

INPUT: Write down IC50 measured for item C=CC(=O)Nc1ccncc1N1CCC(C(=O)N2CCC(O)(Cn3cnc4cc(NC(=O)CCN5CCN(C)CC5)ccc4c3=O)CC2)C(c2ccccc2)C1 (stereo not shown)
OUTPUT: < 0.02 µM

* * *

Molecular target: USP7, Active human recombinant protein (Homo sapiens, UniProt Q93009)
Construct: purchased CP Lot; 20200225001
Test: USP7 assay (Ubiquitin-Rhodamine 110 enzymatic assay)
Assay type: biochemical
Conditions: read-out: IC50
pIC50: −log10 of the molar value.
# pIC50 per entry

Past entries and their recorded results:
| compound | experimental-system | pIC50 |
| --- | --- | --- |
| CC(=O)N1CCc2nc3cc(C(=O)NCCCC(Cc4ccccc4)C(=O)N4CCC(O)(Cn5cnc6cc(NC(=O)CN(C)C)ccc6c5=O)CC4)ccc3c(Cl)c2C1 (stereo not drawn) | USP7, Active human recombinant protein (Homo sapiens, UniProt Q93009) | > 7.70 |
| CC(C)c1cnc2cc(C(=O)NCCN3CCC(C(=O)N4CCC(O)(Cn5cnc6cc(OCCN7CCNCC7)ccc6c5=O)CC4)C(c4ccccc4)C3)ccc2c1Cl (stereo not drawn) | USP7, Active human recombinant protein (Homo sapiens, UniProt Q93009) | > 7.70 |
| CN1CCN(CCC(=O)Nc2ccc3c(=O)n(CC4(O)CCN(C(=O)[C@@H](CCCNC(=O)c5ccc6c(Cl)ccnc6c5)Cc5ccccc5)CC4)cnc3c2)CC1 | USP7, Active human recombinant protein (Homo sapiens, UniProt Q93009) | 7.00 to 7.70 |
| CN(C)CCCOc1ccc2c(=O)n(CC3(O)CCN(C(=O)C(CCCNC(=O)c4ccc5c(Cl)c6c(nc5c4)CCN(C)C6=O)Cc4ccccc4)CC3)cnc2c1 (stereo not drawn) | USP7, Active human recombinant protein (Homo sapiens, UniProt Q93009) | 7.00 to 7.70 |
| CN(C)CCC(=O)Nc1ccc2c(=O)n(CC3(O)CCN(C(=O)[C@H](CCCNC(=O)c4ccc5c(Cl)c6c(nc5c4)CCC6)Cc4ccccc4)CC3)cnc2c1 | USP7, Active human recombinant protein (Homo sapiens, UniProt Q93009) | > 7.70 |

Next compound, please.
INPUT: Write down pIC50 measured for item CN1CCN(CCn2cc3ncn(CC4(O)CCN(C(=O)C(CCCNC(=O)c5ccc6c(Cl)ccnc6c5)Cc5ccccc5)CC4)c(=O)c3n2)CC1 (stereo not drawn)
OUTPUT: < 6.00

* * *

# pIC50 per entry
Target: USP7, Active human recombinant protein (Homo sapiens, UniProt Q93009)
Construct: purchased CP Lot; 20200225001
Assay: USP7 assay (Ubiquitin-Rhodamine 110 enzymatic assay)
Assay type: biochemical
Details: read-out: IC50
pIC50: −log10 of the molar value.

Past entries and their recorded results:
| molecule | pIC50 |
| --- | --- |
| O=C(NCCCC(Cn1ccc(F)n1)C(=O)N1CCC(O)(Cn2cnc3ccccc3c2=O)CC1)c1ccc2c(Cl)c(C(=O)NC3CC3)cnc2c1 (centres unmarked) | 7.00 to 7.70 |
| Cc1cc(Cl)n2cc(C(=O)NCCCC(Cc3ccccc3)C(=O)N3CCC(O)(Cn4cnc5cc(NC(=O)CCN(C)C)ccc5c4=O)CC3)cc2n1 (centres unmarked) | < 6.00 |
| CC1(C)C2C(=O)N(CC3(O)CCN(C(=O)[C@@H]4CCN(CCNC(=O)c5ccc6c(Cl)ccnc6c5)C[C@H]4c4ccccc4)CC3)C(=O)C21 (some centres unmarked) | < 6.00 |
| CN(C)CCCOc1cc2ncn(CC3(O)CCN(C(=O)[C@@H](CCCNC(=O)c4ccc5c(Cl)cc(C6CC6)nc5c4)Cc4ccccc4)CC3)c(=O)c2cc1F | > 7.70 |

Next molecule, please.
INPUT: Write down pIC50 measured for item CN(C)CC(=O)Nc1ccc2c(=O)n(CC3(O)CCN(C(=O)C(CCCNC(=O)c4ccc5c(Cl)c6c(nc5c4)CN(C)C6)Cc4ccccc4)CC3)cnc2c1 (centres unmarked)
OUTPUT: 6.00 to 7.00
